B1: PTPN9 (parent)
chain: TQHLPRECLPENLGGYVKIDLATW

Variants of: B1
Assay: protein stability index of a GFP-peptide fusion (GPS, HEK-293T) (PSI 1-6); higher = more stable;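 further: lentivirally expressed fusions sorted by FACS into six bins by GFP to DsRed ratio, PSI derived from sequencing read proportions per bin multiplied by bin number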
Details: c terminus: a fixed tail appended
Attribute: protein stability index
readout.name: protein stability index

• TQHLPRECLPENLGGYVKIDKATW = 3.35
• TQHLPIECLPENLGGYVKIDLATW = 1.99
• TQHLPRECLPENLWGYVKIDLATW = 2.02
• TQHLPRECLCENLGGYVKIDLATW = 1.8
• TQHLPRECLHENLGGYVKIDLATW = 1.91
• TQHLPRECLPENLGGYVKIDLYTW = 2.21
• TQHLPRECLPENLGGYDKIDLATW = 3.24
• TQPLPRECLPENLGGYVKIDLATW = 1.77
• TQHLPRECLPENSGGYVKIDLATW = 2.41
• TQRLPRECLPENLGGYVKIDLATW = 1.56
• TQHDPRECLPENLGGYVKIDLATW = 2.31
• TQHLPRECLPENLGGYVKIDLTTW = 1.9
• TQHLPRECLPENLYGYVKIDLATW = 2.45
• TQHLPRECLPENLGGYVCIDLATW = 1.49
• MQHLPRECLPENLGGYVKIDLATW = 1.57
• TQHLPRECLPENLGGYVMIDLATW = 1.73
• THHLPRECLPENLGGYVKIDLATW = 1.52
• TQHLPRECLPENLGGYVKIDSATW = 2.73
• TQHLPRECLPENLMGYVKIDLATW = 2.03
• TQHLPRECHPENLGGYVKIDLATW = 1.73
• TQHLPRECLPENLGGYVKIDLSTW = 1.72
• TIHLPRECLPENLGGYVKIDLATW = 1.96
• TQHLPRECLPENLGGGVKIDLATW = 2.87
• TQHLPRECLPENLGGYVDIDLATW = 3.51
• TQHLPRECLPENLGGVVKIDLATW = 2.35
• TQHLPRECLPENLGTYVKIDLATW = 1.35
• TQHLPRECLPENLGGYVKSDLATW = 2.76
• TQHLPRACLPENLGGYVKIDLATW = 1.82
• TQHLPRECLPENLGGYVKIDWATW = 1.76
• TQHLPRELLPENLGGYVKIDLATW = 1.8
• TQHLPRECLPENLGGYVKNDLATW = 2.67
• TQHLPRECLPENLGSYVKIDLATW = 1.92
• TQHLPRGCLPENLGGYVKIDLATW = 1.62
• TQHLPRECLPENLGGYVKGDLATW = 3.3
• TLHLPRECLPENLGGYVKIDLATW = 2.17
• TQHLPRECLPENLGGYVKIDLAHW = 2.09
• TQHLPLECLPENLGGYVKIDLATW = 1.49
• TQWLPRECLPENLGGYVKIDLATW = 1.65
• TAHLPRECLPENLGGYVKIDLATW = 1.84
• TQHLPRECLPENLGCYVKIDLATW = 2.36
• TQHLPRECLPELLGGYVKIDLATW = 1.76
• TQHLPREWLPENLGGYVKIDLATW = 1.72
• TQHLPRECLPENLGGYVKIDLAMW = 1.83
• TQHLPRECLPENLGGYVKIDLATI = 1.94
• TQHLPRECLPENTGGYVKIDLATW = 2.28
• TQHLPRECLPENLGVYVKIDLATW = 1.62
• TQHLPRECNPENLGGYVKIDLATW = 1.97
• TQHLPRENLPENLGGYVKIDLATW = 2.15
• TQHLPRMCLPENLGGYVKIDLATW = 2.33
• TQHLPRECLPENLGGYVKIRLATW = 1.9
• TQHLPRECLTENLGGYVKIDLATW = 1.62
• TQHLPRECLPENLGGYVGIDLATW = 1.93
• TQHLPRECLPENLGRYVKIDLATW = 2.11
• TQHLPRECLPEGLGGYVKIDLATW = 2
• TQHLPRECLPENLGGYAKIDLATW = 2.57
• TQHLPRECLPENLGGHVKIDLATW = 2.41
• TQHLPRECLPENLGGYKKIDLATW = 3.12
• TQHLPRSCLPENLGGYVKIDLATW = 1.94
• TQHLPRECLPENLGGYVAIDLATW = 2
• TQHLGRECLPENLGGYVKIDLATW = 1.73
• TQHLPRRCLPENLGGYVKIDLATW = 2.5
• TQHLPRECLPENLGGYVKIDLRTW = 1.23
• TQHLPRECLPENAGGYVKIDLATW = 2.5
• TQHLPRECLPENLGGYVHIDLATW = 1.79
• TQHLPRECLPENPGGYVKIDLATW = 2.17
• TGHLPRECLPENLGGYVKIDLATW = 2.5
• TQHLPRECLPENLGGWVKIDLATW = 1.5
• TMHLPRECLPENLGGYVKIDLATW = 1.47
• TQHCPRECLPENLGGYVKIDLATW = 2.43
• TKHLPRECLPENLGGYVKIDLATW = 1.86
• TQHLPRECLPENLGGYVKIDLAIW = 2.02
• TQHLPRECTPENLGGYVKIDLATW = 2.01
• TQHLPRECLPVNLGGYVKIDLATW = 1.58
• TQHLPRECLPENLGGYVKIDLWTW = 2.09
• TQILPRECLPENLGGYVKIDLATW = 1.79
• TQHLPRECLPENLGGYVQIDLATW = 1.97
• TQHLPRECLPENLGLYVKIDLATW = 1.73
• TQHLPRECLPENLGGYVKIDLAAW = 1.83
• TQHLPRECLPENLGGYVKILLATW = 1.66
• TQHLERECLPENLGGYVKIDLATW = 2.6
• TQHQPRECLPENLGGYVKIDLATW = 2.82
• TQHLPRECLNENLGGYVKIDLATW = 2.23
• TQHLPRECLPENLGGYVKIDLFTW = 2.43
• TQHLPRVCLPENLGGYVKIDLATW = 2.22
• TQHLPRECLPINLGGYVKIDLATW = 1.89
• TQHLPRECLYENLGGYVKIDLATW = 1.68
• TQHLPRECEPENLGGYVKIDLATW = 2.22
• TQHLPHECLPENLGGYVKIDLATW = 1.63
• TQHLPRECLPENLGGYVKPDLATW = 3.11
• TQHLPRECLPENLGGYVKKDLATW = 3.08
• TQHLPRCCLPENLGGYVKIDLATW = 2.49
